Ksv: recorded values
molecular target: human serum albumin (HSA) (Homo sapiens); test: Fluorescence emission spectrum (quenching) of HSA with carbamate pesticides; format: binding; conditions: 296 K, pH 7.4

Worked cases, Ksv given:
Q: Return the recorded Ksv value; entry: `CNC(=O)Oc1cc(C)cc(C(C)C)c1`
A: 2.409 ± 0.154 10^4 M^−1

Q: Return the recorded Ksv value; entry: `CNC(=O)Oc1cccc(C)c1`
A: 3.261 ± 0.020 10^4 M^−1

Q: Return the recorded Ksv value; entry: `CNC(=O)Oc1ccccc1C(C)C`
A: 2.175 ± 0.070 10^4 M^−1

Q: Return the recorded Ksv value; entry: CNC(=O)O/N=C(\C[S+](C)[O-])C(C)(C)C (centres unmarked) [Thiofanox-sulfoxide]
A: 3.284 ± 0.040 10^4 M^−1

Q: Return the recorded Ksv value; entry: `CCSCc1ccccc1OC(=O)NC`
A: 2.562 ± 0.137 10^4 M^−1

Moving on to another compound below.
Q: Return the recorded Ksv value; entry: `CNC(=O)Oc1ccccc1OC(C)C`
A: 3.425 ± 0.132 10^4 M^−1

====

target: human serum albumin (HSA) (Homo sapiens, UniProt P02768); test: Fluorescence emission spectrum (quenching) of HSA with carbamate pesticides; assay type: binding; conditions: 310 K, pH 7.4
Sequence (P02768 25-609): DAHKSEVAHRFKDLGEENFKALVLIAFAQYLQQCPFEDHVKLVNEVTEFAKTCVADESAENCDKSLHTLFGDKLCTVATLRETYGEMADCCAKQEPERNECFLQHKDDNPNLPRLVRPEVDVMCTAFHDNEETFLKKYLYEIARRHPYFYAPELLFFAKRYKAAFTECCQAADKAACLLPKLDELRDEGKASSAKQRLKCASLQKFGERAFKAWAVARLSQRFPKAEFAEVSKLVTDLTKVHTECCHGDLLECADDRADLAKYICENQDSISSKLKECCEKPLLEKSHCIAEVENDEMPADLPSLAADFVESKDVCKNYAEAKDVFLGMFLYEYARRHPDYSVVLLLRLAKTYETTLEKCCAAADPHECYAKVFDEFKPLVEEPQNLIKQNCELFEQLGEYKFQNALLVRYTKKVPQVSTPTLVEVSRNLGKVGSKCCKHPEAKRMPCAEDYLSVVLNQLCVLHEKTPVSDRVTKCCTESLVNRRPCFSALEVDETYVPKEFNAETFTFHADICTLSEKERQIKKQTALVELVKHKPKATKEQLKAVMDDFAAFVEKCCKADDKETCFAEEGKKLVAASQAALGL
EXPERIMENTAL_READOUT: n (number of binding sites)
// print number alone

Q: Return the recorded n (number of binding sites) value; entry: `CNC(=O)O/N=C(\SC)C(=O)N(C)C`
A: 0.807

Next:
Q: Return the recorded n (number of binding sites) value; entry: CNC(=O)O/N=C(\C)C(C)S(C)(=O)=O (stereo not shown)
A: 0.725

Q: Return the recorded n (number of binding sites) value; entry: `CNC(=O)Oc1ccc(N(C)C)c(C)c1`
A: 0.699

Q: Return the recorded n (number of binding sites) value; entry: `CCSCc1ccccc1OC(=O)NC`
A: 0.674

Q: Return the recorded n (number of binding sites) value; entry: `CNC(=O)ON=C(CSC)C(C)(C)C`
A: 0.730

Q: Return the recorded n (number of binding sites) value; entry: `CNC(=O)ON=C(C)SC`
A: 0.766

Q: Return the recorded n (number of binding sites) value; entry: `CNC(=O)Oc1ccccc1OC(C)C`
A: 0.757

Q: Return the recorded n (number of binding sites) value; entry: `CNC(=O)Oc1cccc(C)c1`
A: 0.616

Q: Return the recorded n (number of binding sites) value; entry: CNC(=O)Oc1cc(C)cc(C)c1 [XMC, 3,5-xylyl methylcarbamate]
A: 0.832

Q: Return the recorded n (number of binding sites) value; entry: CNC(=O)O/N=C(\C[S+](C)[O-])C(C)(C)C (stereo not shown) [Thiofanox-sulfoxide]
A: 0.746

====

target: human serum albumin (HSA) (Homo sapiens, UniProt P02768); assay: Fluorescence emission spectrum (quenching) of HSA with carbamate pesticides; assay type: binding; settings: 310 K, Förster energy transfer
EXPERIMENTAL_READOUT: R (binding distance)
Provide a numeric answer, followed by its unit.

Worked cases, R (binding distance) given:
Q: Return the recorded R (binding distance) value; entry: CNC(=O)Oc1cc(C)cc(C)c1 [XMC, 3,5-xylyl methylcarbamate]
A: 2.033 nm

Q: Return the recorded R (binding distance) value; entry: `CNC(=O)Oc1ccc(N(C)C)c(C)c1`
A: 2.215 nm

Q: Return the recorded R (binding distance) value; entry: `CNC(=O)Oc1cccc(C)c1`
A: 2.525 nm

Moving on to another compound below.
Q: Return the recorded R (binding distance) value; entry: CNC(=O)O/N=C(\C)C(C)S(C)(=O)=O (stereo not shown)
A: 1.964 nm

Values from patent US12385839B2
